Target: F876L mutant Androgen Receptor (AR-F876L) (Homo sapiens (Human), UniProt P10275, F877L)
Sequence (P10275 whole entry F877L): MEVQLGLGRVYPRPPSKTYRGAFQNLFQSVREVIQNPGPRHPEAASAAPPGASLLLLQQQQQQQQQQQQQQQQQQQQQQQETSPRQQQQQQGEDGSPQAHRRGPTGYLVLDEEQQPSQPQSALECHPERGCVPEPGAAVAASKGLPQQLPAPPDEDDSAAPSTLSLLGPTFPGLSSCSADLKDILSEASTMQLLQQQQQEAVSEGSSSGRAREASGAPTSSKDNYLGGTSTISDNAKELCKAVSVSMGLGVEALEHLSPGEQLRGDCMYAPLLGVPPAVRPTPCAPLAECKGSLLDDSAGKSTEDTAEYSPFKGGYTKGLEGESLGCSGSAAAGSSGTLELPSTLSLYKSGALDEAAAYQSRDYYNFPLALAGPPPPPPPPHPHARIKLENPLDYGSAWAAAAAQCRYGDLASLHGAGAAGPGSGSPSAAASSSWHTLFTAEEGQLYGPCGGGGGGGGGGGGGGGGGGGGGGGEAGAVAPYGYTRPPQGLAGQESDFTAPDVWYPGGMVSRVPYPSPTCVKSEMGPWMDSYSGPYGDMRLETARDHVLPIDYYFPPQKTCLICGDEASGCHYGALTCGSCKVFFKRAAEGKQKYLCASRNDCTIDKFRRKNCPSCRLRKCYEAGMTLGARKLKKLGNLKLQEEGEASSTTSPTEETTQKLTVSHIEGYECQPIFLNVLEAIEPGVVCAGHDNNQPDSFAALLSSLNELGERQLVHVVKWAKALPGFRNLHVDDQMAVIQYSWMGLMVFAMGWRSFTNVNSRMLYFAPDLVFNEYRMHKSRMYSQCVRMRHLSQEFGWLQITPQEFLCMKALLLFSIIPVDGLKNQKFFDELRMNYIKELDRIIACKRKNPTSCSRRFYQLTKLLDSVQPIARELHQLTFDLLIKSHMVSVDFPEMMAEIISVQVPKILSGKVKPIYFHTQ
Assay: LNCaP-AR-F876L ANT reporter assay (antagonist mode)
Format: cell-based
Details: antagonist mode; pIC50 = −Log10(IC50 in Molar); read-out: LNCaP-AR-F876L ANT pIC50 (converted)
Readout name: IC50 (nM)

COCCn1ncc2cc(N3C(=S)N(c4cnc(C#N)c(OC)c4)C(=O)C34CCC4)ccc21: 186
CC(C)CCN1CCC(Oc2ccc(N3C(=S)N(c4cnc(C#N)c(Cl)c4)C(=O)C34CCC4)cn2)CC1: 105

a. CC(C)(C)OC(=O)N1CCN(Cc2ccc(N3C(=S)N(c4cnc(C#N)c(C(F)(F)F)c4)C(=O)C34CCC4)cc2)CC1
b. N#Cc1ncc(N2C(=O)C3(CCC3)N(c3ccc(OC4CCN(CC(O)CN)CC4)cc3)C2=S)cc1C(F)(F)F (stereo not shown)
Q: // max by IC50 over [ a , b ] # answer = label of selected item
Ans: b
(b: 501 nM, a: 145 nM)

---

Biological target: F876L mutant Androgen Receptor (AR-F876L) (Homo sapiens (Human), UniProt P10275, F877L)
Assay: LNCaP-AR-F876L ANT reporter assay (antagonist mode)
Format: cell-based
Conditions: antagonist mode; pIC50 = −Log10(IC50 in Molar); read-out: LNCaP-AR-F876L ANT pIC50 (converted)
Readout name: IC50 (nM)

Previously resolved entries follow.
N#Cc1ncc(N2C(=O)C3(CCC3)N(c3ccc(O[C@@H]4CCN[C@@H](C(F)(F)F)C4)cc3)C2=S)cc1C(F)(F)F (racemic): 219
N#Cc1ncc(N2C(=O)C3(CCC3)N(c3ccc(OC4CCSCC4)cc3)C2=S)cc1C(F)(F)F: 117

P. Cn1ncc2cc(N3C(=S)N(c4cnc(C#N)c(Cl)c4)C(=O)C34CCC4)ccc21
Q. CN1CC(COc2ccc(N3C(=S)N(c4cnc(C#N)c(C(F)(F)F)c4)C(=O)C34CCC4)cc2)C1
R. CNC(=O)Cc1ccc(N2C(=S)N(c3cnc(C#N)c(C)c3)C(=O)C23CCC3)cc1
S. C=CCN1CCC(Oc2ccc(N3C(=S)N(c4cnc(C#N)c(C(F)(F)F)c4)C(=O)C34CCC4)cn2)CC1
T. CN(C(=O)OC(C)(C)C)C1(COc2ccc(N3C(=S)N(c4cnc(C#N)c(C(F)(F)F)c4)C(=O)C34CCC4)cc2)COC1
Q: Highest IC50 first, then in falling order down to the smallest. A complete answer lists every label in the requested sequence.
Ans: R, T, P, Q, S

---

Target: F876L mutant Androgen Receptor (AR-F876L) (Homo sapiens (Human), UniProt P10275, F877L)
Test: LNCaP-AR-F876L AG reporter assay (agonist mode)
Format: cell-based
Settings: maximum % stimulation (agonist response) over the tested concentration range; read-out: LNCaP-AR-F876L AG MAX % Stim
Readout name: Emax (%)

CN1CCC(Oc2ccc(N3C(=S)N(c4cnc(C#N)c(Cl)c4)C(=O)C34CCC4)cn2)CC1: 0.5
N#Cc1ncc(N2C(=O)C3(CCC3)N(c3ccc(OCC4(N)COC4)cc3)C2=S)cc1C(F)(F)F: 1.8
N#CCN1CCC(Oc2ccc(N3C(=S)N(c4cnc(C#N)c(C(F)(F)F)c4)C(=O)C34CCC4)cn2)CC1: 0.6
CN1CCCC(Oc2ccc(N3C(=S)N(c4cnc(C#N)c(C(F)(F)F)c4)C(=O)C34CCC4)cc2)CC1 (centres unmarked): 1.6
COCCN1CCC(Oc2ccc(N3C(=S)N(c4cnc(C#N)c(C)c4)C(=O)C34CCC4)cn2)CC1: 0.1

P. N#CCN1CCC(Oc2ccc(N3C(=S)N(c4cnc(C#N)c(Cl)c4)C(=O)C34CCC4)cc2)CC1
Q. N#Cc1ncc(N2C(=O)C3(CCC3)N(c3ccc(OC4CCCO4)cc3)C2=S)cc1C(F)(F)F (centres unmarked)
Q: // max by Emax over [ P , Q ] # answer = label of selected item
Ans: P
(P: 1.7%, Q: 0.4%)

---

Target: wild-type Androgen Receptor (AR-wt) (Homo sapiens (Human))
Sequence (P10275 whole entry): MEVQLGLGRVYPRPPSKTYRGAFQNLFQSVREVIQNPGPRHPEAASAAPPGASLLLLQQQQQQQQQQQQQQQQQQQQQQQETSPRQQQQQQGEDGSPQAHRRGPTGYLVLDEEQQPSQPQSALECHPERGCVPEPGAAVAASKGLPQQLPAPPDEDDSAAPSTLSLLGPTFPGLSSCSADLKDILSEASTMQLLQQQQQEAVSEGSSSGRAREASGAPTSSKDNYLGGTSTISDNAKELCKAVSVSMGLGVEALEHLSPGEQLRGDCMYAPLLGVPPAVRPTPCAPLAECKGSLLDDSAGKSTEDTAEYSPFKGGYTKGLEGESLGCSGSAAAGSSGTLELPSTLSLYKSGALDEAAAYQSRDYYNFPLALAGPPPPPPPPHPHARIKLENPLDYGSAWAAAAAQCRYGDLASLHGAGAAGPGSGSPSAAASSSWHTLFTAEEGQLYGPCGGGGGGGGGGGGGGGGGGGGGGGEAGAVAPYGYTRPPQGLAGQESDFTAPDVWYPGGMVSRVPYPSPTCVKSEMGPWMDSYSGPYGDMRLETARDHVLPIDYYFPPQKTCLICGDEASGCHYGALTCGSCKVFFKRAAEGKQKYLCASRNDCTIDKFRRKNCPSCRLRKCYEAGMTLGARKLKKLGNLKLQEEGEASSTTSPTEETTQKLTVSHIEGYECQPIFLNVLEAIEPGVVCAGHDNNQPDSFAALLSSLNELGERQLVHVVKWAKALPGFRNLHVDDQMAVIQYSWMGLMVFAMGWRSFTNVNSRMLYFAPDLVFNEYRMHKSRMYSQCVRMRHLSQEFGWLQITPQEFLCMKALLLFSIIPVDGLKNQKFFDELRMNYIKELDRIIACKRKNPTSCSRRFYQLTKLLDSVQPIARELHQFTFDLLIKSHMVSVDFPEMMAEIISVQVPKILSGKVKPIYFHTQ
Test: LNCaP-AR-wt AG reporter assay (agonist mode)
Assay type: cell-based
Conditions: agonist mode; pEC50 = −Log10(EC50 in Molar); read-out: LNCaP-AR-wt AG pEC50 (converted)
Readout name: EC50

Previously resolved entries follow.
N#Cc1ncc(N2C(=O)C3(CCC3)N(c3ccc(OC4C5CCC4CNC5)nc3)C2=S)cc1C(F)(F)F (stereo not drawn) [Cpd 139]: > 15.1 µM
CN1CCN(Cc2ccc(N3C(=S)N(c4cnc(C#N)c(Cl)c4)C(=O)C34CCC4)cc2)CC1 [Cpd 219]: > 15.1 µM
N#Cc1ncc(N2C(=O)C3(CCC3)N(c3ccc4c(c3)CCNC4)C2=S)cc1C(F)(F)F [Cpd 108]: > 15.1 µM
N#Cc1ncc(N2C(=O)C3(CCC3)N(c3ccc(OC4CC5(CNC5)C4)cc3)C2=S)cc1C(F)(F)F [Cpd 86]: > 15.1 µM
CCOC(=O)N1CCN(c2ccc(N3C(=S)N(c4cnc(C#N)c(C(F)(F)F)c4)C(=O)C34CCC4)cc2)CC1 [Cpd 58]: > 15.1 µM

Q: If you can, please state the reported EC50 value of N#Cc1ncc(N2C(=O)C3(CCC3)N(c3ccc(O[C@H]4CCNC[C@@H]4F)cc3)C2=S)cc1C(F)(F)F (racemic) [Cpd 95] .
Ans: > 15.1 µM

Q: If you can, please state the reported EC50 value of CN1CCCC(Oc2ccc(N3C(=S)N(c4cnc(C#N)c(C(F)(F)F)c4)C(=O)C34CCC4)cc2)CC1 (stereo not drawn) [Cpd 19] .
Ans: > 15.1 µM

Q: If you can, please state the reported EC50 value of N#Cc1ncc(N2C(=O)C3(CCC3)N(c3ccc(OC4CCCNCC4)cc3)C2=S)cc1C(F)(F)F (stereo not drawn) [Cpd 17] .
Ans: > 15.1 µM

Q: If you can, please state the reported EC50 value of N#CCN1CCC(Oc2ccc(N3C(=S)N(c4cnc(C#N)c(Cl)c4)C(=O)C34CCC4)cn2)CC1 [Cpd 65] .
Ans: > 15.1 µM

Q: If you can, please state the reported EC50 value of CN1CC[C@@H](Oc2ccc(N3C(=S)N(c4cnc(C#N)c(C(F)(F)F)c4)C(=O)C34CCC4)cc2)C[C@H]1CO (racemic) [Cpd 226] .
Ans: > 15.1 µM

Q: If you can, please state the reported EC50 value of CNC(=O)Cc1ccc(N2C(=S)N(c3cnc(C#N)c(C)c3)C(=O)C23CCC3)cc1 [Cpd 8] .
Ans: > 15.1 µM

Q: If you can, please state the reported EC50 value of CC(C)CCN1CCC(Oc2ccc(N3C(=S)N(c4cnc(C#N)c(Cl)c4)C(=O)C34CCC4)cn2)CC1 [Cpd 149] .
Ans: > 15.1 µM

Q: If you can, please state the reported EC50 value of Cc1cc(N2C(=O)C3(CCC3)N(c3ccc(OC4CCNCC4)nc3)C2=S)cnc1C#N [Cpd 87] .
Ans: > 15.1 µM

Q: If you can, please state the reported EC50 value of CN1CCC(Oc2ccc(N3C(=S)N(c4cnc(C#N)c(C(F)(F)F)c4)C(=O)C34CCC4)cn2)CC12CCC2 (racemic) [Cpd 194] .
Ans: > 15.1 µM

Q: If you can, please state the reported EC50 value of N#Cc1ncc(N2C(=O)C3(CCC3)N(c3ccc(O[C@@H]4CCN[C@H](CO)C4)cc3)C2=S)cc1C(F)(F)F (racemic) [Cpd 223] .
Ans: > 15.1 µM

---

Biological target: F876L mutant Androgen Receptor (AR-F876L) (Homo sapiens (Human), UniProt P10275, F877L)
Assay: LNCaP-AR-F876L ANT reporter assay (antagonist mode)
Assay type: cell-based
Conditions: antagonist mode; pIC50 = −Log10(IC50 in Molar); read-out: LNCaP-AR-F876L ANT pIC50 (converted)
Readout name: IC50 (nM)

Previously resolved entries follow.
N#Cc1ncc(N2C(=O)C3(CCC3)N(c3ccc(OC4CCN(C5CC5)CC4)cc3)C2=S)cc1C(F)(F)F: 631
N#Cc1ncc(N2C(=O)C3(CCC3)N(c3ccc(N4CCN(C(=O)N5CCCC5)CC4)cc3)C2=S)cc1C(F)(F)F: 141
N#Cc1ncc(N2C(=O)C3(CCC3)N(c3ccc(OCCN4CC5(C4)CC(F)(F)C5)cc3)C2=S)cc1C(F)(F)F: 129
N#Cc1ncc(N2C(=O)C3(CCC3)N(c3ccc(OC4CCN(CCO)CC4)cc3)C2=S)cc1Cl: 8.71

1. CN1CCC(n2ncc3cc(N4C(=S)N(c5cnc(C#N)c(C(F)(F)F)c5)C(=O)C45CCC5)ccc32)CC1
2. CN(C)C1CCC(Oc2ccc(N3C(=S)N(c4cnc(C#N)c(C(F)(F)F)c4)C(=O)C34CCC4)cc2)CC1 (stereo not drawn)
3. COCCn1cc2cc(N3C(=S)N(c4cnc(C#N)c(OC)c4)C(=O)C34CCC4)ccc2n1
Q: Write the entries in order, lowest recorded IC50 first. A complete answer lists every label in the requested sequence.
Ans: 2, 3, 1
